# METHOD_DESCRIPTION: Cell Viability - NIH 3T3 (AID 541);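 further: cells exposed to compound for 40 hours; nearly all actives have a fitted effect of over 25% in size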
# CONDITION_SUMMARY: NIH 3T3 cell viability, qHTS
Inconclusive results are not listed. Activity calls are given as the source filed them. The call rests on the fitted dose curve; in most records, active means well fitted cell-killing curve with a large enough effect; inconclusive means small, poorly fitted or top-dose-only effect; inactive means flat fitted curve, though single readings scatter.
One label from this list, please: Y for active, N for inactive

Some entries whose results are on file:
Problem: Hi, sorry to bother you, what did the test record for CN1CCC[C@H]1c1cccnc1 ?
Result: N

Problem: Hi, sorry to bother you, what did the test record for Nc1ccc([N+](=O)[O-])cc1O ?
Result: Y

Problem: Hi, sorry to bother you, what did the test record for NCCO ?
Result: N

Problem: Hi, sorry to bother you, what did the test record for COc1cc(CNC(=O)CCCC/C=C/C(C)C)ccc1O ?
Result: Y

Problem: Hi, sorry to bother you, what did the test record for CCCOC(=O)c1ccc(O)cc1 ?
Result: N

Problem: Hi, sorry to bother you, what did the test record for CCCCCCCCCCCCCCCCCC(=O)O ?
Result: N

Problem: Hi, sorry to bother you, what did the test record for CC1(C)S[C@@H]2[C@H](NC(=O)[C@H](N)c3ccccc3)C(=O)N2[C@H]1C(=O)O ?
Result: N

***
Problem: Hi, sorry to bother you, what did the test record for C#C[C@]1(O)CC[C@H]2[C@@H]3CCc4cc(O)ccc4[C@H]3CC[C@@]21C ?
Result: N
